Values from ChEMBL document CHEMBL1153438

Each item that follows carries a reported IC50.
# System: K562
# assay: Cytotoxicity against human K562 cells after 48 hrs by MTT assay
# Assay type: functional, cell-based
# condition.parameters: K562, 48 h
Dear colleague, please return just the value in µM, with no unit written.

// worked examples, IC50 included
>  <smiles.data>
COc1cc([C@@H]2c3cc4c(cc3[C@@H](N[C@@H](Cc3ccccc3)C(=O)OCCCCCn3cc(F)c(=O)[nH]c3=O)[C@H]3COC(=O)[C@H]23)OCO4)cc(OC)c1O

>  <IC50 [µM]>
13.2

$$$$
>  <smiles.data>
COc1cc([C@@H]2c3cc4c(cc3[C@@H](N[C@H](C(=O)OCCCn3cc(F)c(=O)[nH]c3=O)C(C)C)[C@H]3COC(=O)[C@H]23)OCO4)cc(OC)c1O

>  <IC50 [µM]>
13.5

$$$$
>  <smiles.data>
COc1cc([C@@H]2c3cc4c(cc3[C@@H](N[C@@H](CC(C)C)C(=O)OCCCCn3cc(F)c(=O)[nH]c3=O)[C@H]3COC(=O)[C@H]23)OCO4)cc(OC)c1O

>  <IC50 [µM]>
5.3

$$$$

[ask] Please look up its IC50: COc1cc([C@@H]2c3cc4c(cc3[C@@H](N[C@@H](CCSC)C(=O)OCCCn3cc(F)c(=O)[nH]c3=O)[C@H]3COC(=O)[C@H]23)OCO4)cc(OC)c1O
[reply] 8.8

[ask] Same thing, different compound: COc1cc([C@@H]2c3cc4c(cc3[C@@H](N[C@@H](CC(C)C)C(=O)OCCCCCn3cc(F)c(=O)[nH]c3=O)[C@H]3COC(=O)[C@H]23)OCO4)cc(OC)c1O
[reply] 6

###

# Test system: HL-60
# assay: Cytotoxicity against human HL60 cells after 48 hrs by MTT assay
# Assay type: functional, cell-based
# condition.parameters: HL-60, 48 h
Let's look at some compounds and their measured IC50.
# value in nM; strip the unit string

>  <compound>
COc1cc([C@@H]2c3cc4c(cc3[C@H](O)[C@H]3COC(=O)[C@H]23)OCO4)cc(OC)c1OC [PODOFILOX]

>  <unit.of.measurement>
nM

>  <IC50>
2750

$$$$
>  <compound>
CC[C@H](C)[C@H](N[C@@H]1c2cc3c(cc2[C@@H](c2cc(OC)c(O)c(OC)c2)[C@H]2C(=O)OC[C@@H]21)OCO3)C(=O)OCCCn1cc(F)c(=O)[nH]c1=O

>  <unit.of.measurement>
nM

>  <IC50>
240

$$$$
>  <compound>
COc1cc([C@@H]2c3cc4c(cc3[C@@H](N[C@H](C(=O)OCCCn3cc(F)c(=O)[nH]c3=O)[C@@H](C)O)[C@H]3COC(=O)[C@H]23)OCO4)cc(OC)c1O

>  <unit.of.measurement>
nM

>  <IC50>
23200

$$$$
>  <compound>
COc1cc([C@@H]2c3cc4c(cc3[C@@H](N[C@@H](Cc3ccccc3)C(=O)OCCCCCn3cc(F)c(=O)[nH]c3=O)[C@H]3COC(=O)[C@H]23)OCO4)cc(OC)c1O

>  <unit.of.measurement>
nM

>  <IC50>
40

$$$$
>  <compound>
COc1cc([C@@H]2c3cc4c(cc3[C@@H](N[C@@H](C)C(=O)OCCCn3cc(F)c(=O)[nH]c3=O)[C@H]3COC(=O)[C@H]23)OCO4)cc(OC)c1O

>  <unit.of.measurement>
nM

>  <IC50>
22300

$$$$
>  <compound>
COc1cc([C@@H]2c3cc4c(cc3[C@@H](N[C@@H](Cc3ccccc3)C(=O)OCCCn3cc(F)c(=O)[nH]c3=O)[C@H]3COC(=O)[C@H]23)OCO4)cc(OC)c1O

>  <unit.of.measurement>
nM

>  <IC50>
310

$$$$

[ask] Need IC50 of COc1cc([C@@H]2c3cc4c(cc3[C@@H](N[C@@H](Cc3ccc(O)cc3)C(=O)OCCCn3cc(F)c(=O)[nH]c3=O)[C@H]3COC(=O)[C@H]23)OCO4)cc(OC)c1O , thanks.
[reply] 26600

[ask] Another compound to look at: COc1cc([C@@H]2c3cc4c(cc3[C@@H](N[C@@H](Cc3ccccc3)C(=O)OCCCCn3cc(F)c(=O)[nH]c3=O)[C@H]3COC(=O)[C@H]23)OCO4)cc(OC)c1O
[reply] 420

[ask] Similarly, COc1cc([C@@H]2c3cc4c(cc3[C@@H](N[C@@H](CC(C)C)C(=O)OCCCCCn3cc(F)c(=O)[nH]c3=O)[C@H]3COC(=O)[C@H]23)OCO4)cc(OC)c1O ?
[reply] 310
